Source listed as patent US7265152B2.

# Assay System: HCV NS5B (Hepatitis C virus genotype 1b, UniProt Q9WMX2)
# Construct: fusion protein, of which the carboxyl terminal 21 amino acids were removed to enhance its solubility; His tag (GSHHHHHH); made in house; host or cells: E. coli
# Protocol: Inhibition of viral RNA-dependent RNA polymerase (RdRp), in vitro biochemical assay
# Design: species or system HCV genotype 1b virus (BB7)
# Condition Description: HCV NS5B RdRp, BB7; reported as range class; read-out: HCV pol-BB7 IC50
Recorded Metric: IC50

{"columns": ["Given Smiles", "IC50"],
 "data": [
  ["CNC(=O)c1c(-c2ccc(F)cc2)oc2cc(-c3ncon3)c(OC(C)C)cc12", "≤ 500 nM"]
]}

Give IC50 (HCV NS5B (Hepatitis C virus genotype 1b, UniProt Q9WMX2)) of the following compound: `CNC(=O)c1c(-c2ccc(F)cc2)oc2cc(N3CCOCC3)c(OCc3ccc(C#N)cc3)cc12`
500 to 5000 nM

Further, for `CNC(=O)c1c(-c2ccc(F)cc2)oc2cc(CN(C)S(C)(=O)=O)c(OC(C)C)cc12` ?
≤ 500 nM

Further, for `CNC(=O)c1c(-c2ccc(F)cc2)oc2cc(N3CCOCC3)c(OCc3cccc(OC)c3)cc12` ?
≤ 500 nM

====

# Test system: HCV replicon (BB7 sequence) in Huh-7-Clone A cells
# Protocol: HCV replicon assay: ELISA of NS5A protein in replicon-containing cells (Inhibition of Viral RNA Replication)
# Type: cell-based
# Condition Description: Hepatitis C virus; HCV replicon assay; ranges of EC50; read-out: Replicon
pEC50: −log10 of the molar value.
Recorded Metric: pEC50

# example entries with known answers
{"columns": ["Compound", "pEC50"],
 "data": [
  ["CCN(c1cc2oc(-c3ccc(F)cc3)c(C(=O)NC)c2cc1F)S(C)(=O)=O", "> 5.00"],
  ["CNC(=O)c1c(-c2ccc(F)cc2)oc2cc(-c3cc(COC)on3)c(OC)cc12", "> 6.00"],
  ["CNC(=O)c1c(-c2ccccc2)oc2ccc(OC)cc12", "< 5.00"],
  ["CNC(=O)c1c(-c2ccc(F)cc2)oc2cc(N(C)S(C)(=O)=O)c(OCc3cccc(OC)c3)cc12", "> 6.00"],
  ["CCN(CC)c1nc(COc2cc3c(C(=O)NC)c(-c4ccc(F)cc4)oc3cc2N(C)S(C)(=O)=O)ns1", "> 6.00"],
  ["CNC(=O)c1c(-c2ccc(F)cc2)oc2cc(C3CCCN3C(N)=O)c(OC)cc12 (centres unmarked)", "> 6.00"]
]}

Could you share which pEC50 value was measured for `CCNc1cc2oc(-c3ccc(F)cc3)c(C(=O)NC)c2c(Cl)c1OC` ?
> 6.00

Further, for `CNC(=O)c1c(-c2ccc(F)cc2)oc2cc(N(CCF)S(C)(=O)=O)c(OC)cc12` ?
> 6.00

Further, for `CCCOc1cc2c(C(=O)NC)c(-c3ccc(F)cc3)oc2cc1N(COC)S(C)(=O)=O` ?
> 6.00

Further, for CNC(=O)c1c(-c2ccc(F)cc2)oc2cc(C3CCOC3)c(OC)cc12 (centres unmarked) ?
> 6.00

Further, for CNC(=O)c1c(-c2ccc(F)cc2)oc2cc(NS(C)(=O)=O)c(C3CCCO3)cc12 (centres unmarked) ?
> 6.00

Further, for CNC(=O)c1c(-c2ccc(F)cc2)oc2cc(N(CC(C)O)S(C)(=O)=O)c(OC(C)C)cc12 (centres unmarked) ?
> 6.00
